- measurement.target: apo APE1^ΔN38 (Homo sapiens, UniProt P27695)
- Construct: Human APE1 lacking the 38 N-terminal residues (APE1^ΔN38); poly-His (N, cleaved yes)
- Sequence (P27695 39-318): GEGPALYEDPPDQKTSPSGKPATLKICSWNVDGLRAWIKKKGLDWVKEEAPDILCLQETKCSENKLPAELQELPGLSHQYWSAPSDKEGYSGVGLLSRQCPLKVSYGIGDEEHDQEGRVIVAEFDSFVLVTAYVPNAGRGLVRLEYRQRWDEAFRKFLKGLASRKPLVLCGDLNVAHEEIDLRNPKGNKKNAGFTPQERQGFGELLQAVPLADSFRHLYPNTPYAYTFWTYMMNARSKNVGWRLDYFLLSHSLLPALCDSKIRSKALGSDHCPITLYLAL
- assay.method.text: NMR chemical shift perturbation (15N-TROSY), apo APE1
- recorded.conditions: inferred from the absence of a detectible interaction, apo-APE1 0.05 mM, compound 0.03 mM; read-out: Kd for binding to apo-APE1
pKd: −log10 of the molar value.
reported.endpoint: pKd

pKd recorded for this compound, CC(=O)Nc1sc2c(c1-c1nc3ccccc3s1)CCN(C(C)C)C2 , is < 4.52

###

- measurement.target: apo APE1^ΔN38 (Homo sapiens, UniProt P27695)
- Construct: Human APE1 lacking the 38 N-terminal residues (APE1^ΔN38); poly-His (N, cleaved yes); made in house; host or cells: E. coli
- assay.method.text: NMR chemical shift perturbation (15N-TROSY), apo APE1
- Format: binding
- recorded.conditions: apo APE1^ΔN38 0.15 mM, compound 1 mM
Here, each record is paired with measured sum of CSPs (ΣΔδ) for all assigned APE1 residues data.
Could you respond with only the numeric value?

Solved entries:
{"compound": "O=C(O)c1cc2cccc([N+](=O)[O-])c2[nH]1 [Compound 1, 7-nitroindole-2-carboxylic acid]", "observed.measurement": 1.19}
{"compound": "O=C(O)c1cc2cc(F)ccc2[nH]1 [Compound 2, 5-fluoroindole-2-carboxylic acid]", "observed.measurement": 1.31}
{"compound": "O=C(O)c1cc2ccc(Br)cc2[nH]1 [Compound 4, 6-bromoindole-2-carboxylic acid]", "observed.measurement": 2.54}

Okay, now this compound:
Record O=C(O)c1cc2cc([N+](=O)[O-])ccc2[nH]1 [Compound 3, 5-nitroindole-2-carboxylic acid] / apo APE1^ΔN38 (Homo sapiens, UniProt P27695), sum of CSPs (ΣΔδ) for all assigned APE1 residues recorded as 2.47
